- Target desc: IDO (Homo sapiens, UniProt P14902)
- Sequence (P14902 whole entry): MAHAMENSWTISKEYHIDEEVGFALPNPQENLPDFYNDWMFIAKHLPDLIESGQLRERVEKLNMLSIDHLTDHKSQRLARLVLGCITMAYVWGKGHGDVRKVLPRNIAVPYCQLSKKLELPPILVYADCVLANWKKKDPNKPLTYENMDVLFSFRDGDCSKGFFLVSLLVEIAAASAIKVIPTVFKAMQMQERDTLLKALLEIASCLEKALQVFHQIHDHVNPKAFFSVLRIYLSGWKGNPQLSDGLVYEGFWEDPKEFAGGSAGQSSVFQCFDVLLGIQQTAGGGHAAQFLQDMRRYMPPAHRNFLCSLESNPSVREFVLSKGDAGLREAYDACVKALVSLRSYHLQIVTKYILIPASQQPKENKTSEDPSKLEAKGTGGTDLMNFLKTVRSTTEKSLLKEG
- Protocol text: SKOV3 kynurenine cell-based assay (IDO induced by IFN-γ)
- Set-up: IDO expression was induced in the SKOV3 cells by the addition of 500 ng/ml IFN-γ; endogenous in cells; host or cells: SKOV3 (human ovarian adenocarcinoma), induced with IFN-γ
- Measurement setup: SKOV3 human ovarian adenocarcinoma cells, 500 ng/ml IFN-γ, 48 hours, 500 μM L-tryptophan; read-out: SKOV3 Kynurenine cell based assay pIC50 (converted)
Recorded IC50 for the following molecules

Examples with answers:
- Molecule: "CC(C)c1cc(C2CCN(S(C)(=O)=O)CC2)c2cn[nH]c2c1"
  Reported metric: "IC50"
  Test value: "32.4 to 100 µM"
- Molecule: "CC(=O)NCCN1CCN(c2cc(Cl)cc3[nH]ncc23)CC1(C)C"
  Reported metric: "IC50"
  Test value: "> 100 µM"
- Molecule: "Cc1n[nH]c2cc(Cl)cc(N3CCN(S(C)(=O)=O)CC3)c12"
  Reported metric: "IC50"
  Test value: "3.24 to 31.6 µM"

## Input Checklist item: IC50 tested on IDO (Homo sapiens, UniProt P14902), entry `O=C(CO)N1CCN(c2cc(Cl)cc3[nH]ncc23)CC1` , value?
## Output 3.24 to 31.6 µM

## Input Proceed to `CN1CCN(c2cc(Cl)cc3[nH]ncc23)CC1`
## Output > 100 µM

## Input Proceed to CS(=O)(=O)N1CCN(c2cc(Cl)cc3[nH]ncc23)C2CCCCC21 (single isomer, unassigned) [Compound 386]
## Output 3.24 to 31.6 µM

## Input Proceed to CN1C(=O)NC(C2CCN(c3cc(Cl)cc4[nH]ncc34)CC2)C1=O (stereo not drawn)
## Output > 100 µM

## Input Proceed to `NC(=O)c1ccc(-c2cc(Cl)cc3[nH]ncc23)cc1`
## Output 3.24 to 31.6 µM

## Input Proceed to `CNC(=O)C1CCN(c2cc(Cl)cc3[nH]ncc23)CC1`
## Output 3.24 to 31.6 µM
